pIC50 values by entry
Molecular target: cytoplasmic kinase domain of human IGF-1R (IGF-1R-GST) (Homo sapiens, UniProt P08069)
Construct: cytoplasmic kinase domain of human IGF-1R (amino acids 964-1370); GST (glutathione-S-transferase)
Sequence (P08069 964-1367 limits assumed): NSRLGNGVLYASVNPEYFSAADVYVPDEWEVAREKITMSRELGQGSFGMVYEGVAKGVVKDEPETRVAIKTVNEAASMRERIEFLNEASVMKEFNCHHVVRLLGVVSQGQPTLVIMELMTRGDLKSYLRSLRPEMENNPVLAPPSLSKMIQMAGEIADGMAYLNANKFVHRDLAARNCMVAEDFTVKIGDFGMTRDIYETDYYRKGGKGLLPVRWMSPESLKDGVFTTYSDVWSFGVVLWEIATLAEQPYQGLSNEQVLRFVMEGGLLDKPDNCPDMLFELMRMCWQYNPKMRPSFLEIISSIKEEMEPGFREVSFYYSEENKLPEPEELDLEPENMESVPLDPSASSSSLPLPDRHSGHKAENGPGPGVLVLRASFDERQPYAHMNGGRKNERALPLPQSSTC
Experiment: Insulin-like growth factor-1 receptor (IGF-1R) kinase assay (DELFIA)
Conditions: IGF-1R-GST kinase activity, read-out: IGF1R IC50
pIC50: −log10 of the molar value.
Value kind: pIC50

[
  {
    "Compound": "COc1cc(N2CCC(N3CCC(F)(F)CC3)CC2)ccc1Nc1ncc(C(F)(F)F)c(NCc2cccc3c2CC(=O)N3)n1 [Example I-199]",
    "Recorded value": 7.96
  },
  {
    "Compound": "CCc1cc(C2CCCN(CCOC)C2)ccc1Nc1ncc(Br)c(NCc2cccc3c2C(C)(C)C(=O)N3)n1 (racemic) [Example I-368]",
    "Recorded value": 8.70
  },
  {
    "Compound": "CN(C)CC(=O)N1CCC(n2cc(Nc3ncc(Cl)c(NCc4cccc5c4C(C)(C)C(=O)N5)n3)cn2)CC1 [Example I-66]",
    "Recorded value": 8.22
  },
  {
    "Compound": "COc1cc(N2CCNCC2)ccc1Nc1ncc(Cl)c(NCc2cccc3c2C(C)(C)C(=O)N3)n1 [Example I-11]",
    "Recorded value": 8.70
  }
]

* * *

Target: cytoplasmic kinase domain of human IGF-1R (IGF-1R-GST) (Homo sapiens, UniProt P08069)
Construct: cytoplasmic kinase domain of human IGF-1R (amino acids 964-1370); GST (glutathione-S-transferase)
Assay: Insulin-like growth factor-1 receptor (IGF-1R) kinase assay (DELFIA)
Conditions: IGF-1R-GST kinase activity, read-out: IGF1R IC50
Each entry below carries its reported IC50.

[
  {
    "Compound": "CC(C)(O)CN1CCC(c2ccc(Nc3ncc(Cl)c(NCc4cccc5c4C(C)(C)C(=O)N5)n3)cc2)CC1",
    "Unit tag": "nM",
    "IC50": 3
  },
  {
    "Compound": "COc1cc(N2CC3CC2CN3C)ccc1Nc1ncc(C(F)(F)F)c(NCc2cccc3c2C(C)(C)C(=O)N3)n1 (centres unmarked)",
    "Unit tag": "nM",
    "IC50": 2
  },
  {
    "Compound": "COc1cc(N2CCNCC2)ccc1Nc1ncc(C(F)(F)F)c(NCc2cccc3c2C(C)(C)C(=O)N3C)n1",
    "Unit tag": "nM",
    "IC50": 3
  },
  {
    "Compound": "CCc1cc(C2CCN(CCOC)CC2)ccc1Nc1ncc(Cl)c(NCc2cccc3c2C(C)(C)C(=O)N3)n1",
    "Unit tag": "nM",
    "IC50": 4
  },
  {
    "Compound": "COc1cc(N2CCN(C3CCC3)[C@H](C)C2)ccc1Nc1ncc(C(F)(F)F)c(NCc2cccc3c2C(C)(C)C(=O)N3)n1",
    "Unit tag": "nM",
    "IC50": 0.87
  }
]

* * *

Molecular target: cytoplasmic kinase domain of human IGF-1R (IGF-1R-GST) (Homo sapiens)
Construct: cytoplasmic kinase domain of human IGF-1R (amino acids 964-1370); GST (glutathione-S-transferase)
Test: Insulin-like growth factor-1 receptor (IGF-1R) kinase assay (DELFIA)
Conditions: IGF-1R-GST kinase activity, read-out: IGF1R IC50
pIC50: −log10 of the molar value.
Threshold check on pIC50: at or above 8 gives label 1, strictly below gives label 0.

[
  {
    "Smiles record": "COCCN1CCC[C@H](c2ccc(Nc3ncc(Br)c(NCc4cccc5c4C(C)(C)C(=O)N5)n3)c(C)c2)C1",
    "Classification": "label 1"
  },
  {
    "Smiles record": "CC(C)(O)CN1CCC(c2ccc(Nc3ncc(Cl)c(NCc4cccc5c4C(C)(C)C(=O)N5)n3)c3c2OCO3)CC1",
    "Classification": "label 1"
  },
  {
    "Smiles record": "COc1cc(C(=O)NCCN2CCCC2)ccc1Nc1ncc(C(F)(F)F)c(NCc2cccc3c2CC(=O)N3)n1",
    "Classification": "label 0"
  },
  {
    "Smiles record": "CCOc1cc(N2CCN(C(C)=O)CC2)ccc1Nc1ncc(C(F)(F)F)c(NCc2cccc3c2C(C)(C)C(=O)N3)n1",
    "Classification": "label 1"
  },
  {
    "Smiles record": "CCN1CCN(c2ccc(Nc3ncc(C(F)(F)F)c(NCc4cccc5c4C(C)(C)C(=O)N5)n3)c(OC)c2)CC1",
    "Classification": "label 1"
  },
  {
    "Smiles record": "COc1cc(N2CCC(N(C)CCCN(C)C)CC2)ccc1Nc1ncc(C(F)(F)F)c(NCc2cccc3c2CC(=O)N3)n1",
    "Classification": "label 1"
  }
]

* * *

Tested on: TC-71 (Ewing's sarcoma) cells
Test: Cell proliferation assay, TC-71 (Alamar Blue)
Format: cell-based
Details: 72 h with compound, EC50 ranges as class symbols
Method: Cell Proliferation Assays Compounds were tested for their anti-proliferative effects in the TC-71 (Ewing's sarcoma) and HCT 116 (colorectal carcinoma) cancer cell lines in vitro. Published scientific data has described that interference with the Insulin-like Growth Factor-1 Receptor (IGF-1R) signaling pathway reduces the proliferation of TC-71 cells. Therefore TC-71 cells served as a positive control cell line for monitoring the activity of compounds against IGF-1R-mediated cell proliferation. […]

[
  {
    "Compound": "COCCN1CCC(c2ccc(Nc3ncc(Br)c(NCc4cccc5c4C(C)(C)C(=O)N5)n3)c(C)c2)CC1",
    "EC50": "< 50 nM"
  },
  {
    "Compound": "Cc1cc(C2CCCN(CC(O)C(F)(F)F)C2)ccc1Nc1ncc(Cl)c(NCc2cccc3c2C(C)(C)C(=O)N3)n1 (racemic)",
    "EC50": "< 50 nM"
  },
  {
    "Compound": "Cc1cc(N2CCN(CC(C)(C)O)CC2)ccc1Nc1ncc(Cl)c(NCc2cccc3c2C(C)(C)C(=O)N3)n1",
    "EC50": "50 to 250 nM"
  },
  {
    "Compound": "COc1cc(N2CCN(C)CC2)ccc1Nc1ncc(Cl)c(NCc2cccc3c2C(C)(C)C(=O)N3)n1",
    "EC50": "< 50 nM"
  },
  {
    "Compound": "COc1cc(C2CCCN(CC(C)(C)O)C2)ccc1Nc1ncc(C(F)(F)F)c(NCc2cccc3c2C(C)(C)C(=O)N3)n1 (racemic)",
    "EC50": "< 50 nM"
  },
  {
    "Compound": "CC(C)(O)C(=O)N1CCC(c2ccc(Nc3ncc(Br)c(NCc4cccc5c4C(C)(C)C(=O)N5)n3)cc2)CC1",
    "EC50": "50 to 250 nM"
  }
]
